- assay.system: GST-RBD WT (Influenza A virus A/Brevig …, UniProt Q99AU3 1-85)
- Sequence (Q99AU3 1-85): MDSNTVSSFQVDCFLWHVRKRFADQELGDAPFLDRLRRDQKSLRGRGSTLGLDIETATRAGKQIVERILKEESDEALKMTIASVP
- assay.method.text: EMSA (fEMSA); […], pH 8.0, 1 h at room temperature; […]
- reported.conditions: protein: recombinant; tags: GST; chain copies: 2; label: 5'-FAM (FITC) on both strands; blunt
measured.metric: pKd
pKd (log units): -log10 of the concentration in mol/L.

Prompt line: For the binder shown here, FAM-dsRNA 16 bp (dsRNA) RNA 1: CCAUCCUCUACAGGCG RNA 2: CGCCUGUAGAGGAUGG , give the reported pKd.
Response line: 7.00
